Where do these numbers come from? They come from PubChem BioAssay AID180.

I'd appreciate it if you could supply T/C values for the items below.
Tested on: BDF1 mice, Adenocarcinoma 755 s.c., tumor weight T/C
Assay: NCI In Vivo Anticancer Drug Screen. Data for tumor model Adenocarcinoma 755 (subcutaneous) in B6D2F1 (BDF1) mice
Details: endpoint: mean tumor weight; dose: 28.0 mg/kg/injection; schedule: Q01DX011 (ip); vehicle: carboxymethylcellulose (CMC); higher = larger tumour

Give its T/C value. Item: O=C1NC(=O)C2(CCCc3ccc(N(CCCl)CCCl)cc32)N1 (configuration not stated) 30 % of control

Also check CCOC(=O)Sc1ncnc2nc[nH]c12 8 % of control

Moving on to the next compound: CS(=O)(=O)OCCCCCCCCCOS(C)(=O)=O 7 % of control

How about [Cl][Pt+2]([Cl])([Cl])[Cl].[Na+].[S-]c1ncnc2nc[nH]c12.[S-]c1ncnc2nc[nH]c12 ? 5 % of control

Next compound up: C1OC1C1CO1 (configuration not stated) 61 % of control

Check CCOC(=O)c1cnc(SCc2ccccc2Cl)nc1N1CC1 too. 29 % of control

Try CS(=O)(=O)OCCC(=O)NCNC(=O)CCOS(C)(=O)=O next. 4 % of control

###

Provide the recorded T/C for the entries that follow.
System: BDF1 mice, Adenocarcinoma 755 s.c., tumor weight T/C
Assay: NCI In Vivo Anticancer Drug Screen. Data for tumor model Adenocarcinoma 755 (subcutaneous) in B6D2F1 (BDF1) mice
Conditions: endpoint: mean tumor weight; dose: 300.0 mg/kg/injection; schedule: Q01DX011 (ip); vehicle: carboxymethylcellulose (CMC); higher = larger tumour

Field request: T/C | item: O=C(O)CCC(=O)Nc1nccs1 83 % of control

Same lookup for CCC(C)Cn1cnc2c(SCc3ccccc3)nc(N)nc21 (centres undefined) , please. 13 % of control

Query Nc1nc(SCc2ccccc2)c2ncn(C3CCCC3)c2n1 next 1 % of control

Now consider CCC(C)Sc1nc(N)nc2c1ncn2C1OC(CO)C(O)C1O (centres undefined) and answer again. 2 % of control

###

For each record, write down the corresponding T/C.
System: BDF1 mice, Adenocarcinoma 755 s.c., tumor weight T/C
Experiment: NCI In Vivo Anticancer Drug Screen. Data for tumor model Adenocarcinoma 755 (subcutaneous) in B6D2F1 (BDF1) mice
Conditions: endpoint: mean tumor weight; dose: 250.0 mg/kg/injection; schedule: Q01DX011 (ip); vehicle: methylcellulose (MC); higher = larger tumour

Identify the measured T/C of CSc1ncc(Br)c(NCc2ccccc2Cl)n1 for BDF1 mice, Adenocarcinoma 755 s.c., tumor weight T/C. 80 % of control

Would you mind doing Nc1nc(SCc2ccccc2)c2ncn(Cc3ccccc3)c2n1 as well? 7 % of control

Would you kindly repeat that for Nc1nc(-c2cccnc2)nc(N)c1N=O ? 81 % of control

Likewise for Cc1cc(Nc2ccccc2Br)nc(N)n1 ? 76 % of control

Now the molecule CC1CN(Cc2ccccc2)C(=S)N(c2ccccc2)C1=O (centres undefined) 82 % of control

// query: Cc1ccccc1Nc1nc(N)nc(C)c1Br 81 % of control

And CNc1nc(SCc2ccccc2)ncc1C ? 52 % of control

Please give the result for COc1cc(C=O)cc(O)c1O too. 40 % of control

Try this molecule next: Nc1nc(Cl)cc(Nc2ccccc2Cl)n1 75 % of control

// next record CSc1ncc(Br)c(Nc2ccc(Br)cc2)n1 86 % of control

Also, CCCCNCC(C)C(=O)OC (centres undefined) please. 104 % of control

Try Cc1cn(C2CCCCC2)c(=O)n(-c2ccccc2)c1=O next. 88 % of control

Moving on to the next molecule: CCOc1ccccc1Nc1cc(Cl)nc(N)n1 70 % of control

Consider next the molecule CSc1ncc(Br)c(Nc2ccc(C)cc2)n1 in the same way. 68 % of control
